Tested on: VDR:RXRa (NR concentration 270 nM, RXRa partner concentration 90 nM)
Protocol Text: PBM binding z-score (relative to random genomic background probes); higher = stronger binding; sequences stand for … in GC…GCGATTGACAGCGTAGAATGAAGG
Experimental Endpoint: PBM binding z-score

{"columns": ["Sequence Content", "Target Or System", "Reported Value"],
 "data": [
  ["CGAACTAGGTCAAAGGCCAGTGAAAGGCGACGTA", "VDR:RXRa (NR concentration 270 nM, RXRa partner concentration 90 nM)", 1.74],
  ["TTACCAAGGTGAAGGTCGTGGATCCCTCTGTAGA", "VDR:RXRa (NR concentration 270 nM, RXRa partner concentration 90 nM)", 1.28],
  ["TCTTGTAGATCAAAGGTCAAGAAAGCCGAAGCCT", "VDR:RXRa (NR concentration 270 nM, RXRa partner concentration 90 nM)", 4.14],
  ["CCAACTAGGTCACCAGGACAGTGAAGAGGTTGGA", "VDR:RXRa (NR concentration 270 nM, RXRa partner concentration 90 nM)", 1.99],
  ["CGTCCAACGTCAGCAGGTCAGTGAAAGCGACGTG", "VDR:RXRa (NR concentration 270 nM, RXRa partner concentration 90 nM)", -0.198]
]}

Now look at this entry.
Consider the sequence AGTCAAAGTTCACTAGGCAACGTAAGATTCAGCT and give its measured PBM binding z-score. 3.13
